system: E. coli DH5a; type: cell-based; details: DH5a, pH 7.2
Square brackets hold non-standard residues; d marks the D form. Peptide text beside a SMILES is read from it. Chg = N[C@H](C(=O)O)C1CCCCC1
RECORDED ENDPOINT: pIC50
Note: pIC50 values are expressed as the negative base-10 logarithm of concentration in M.

MOLECULE	pIC50
CSCC[C@@H](NC(=O)[C@@H](Cc1ccccc1)NC(=O)[C@@H](CCCNC(=N)N)NC(=O)[C@@H](CCCNC(=N)N)NC(=O)[C@@H](CO)NC(=O)[C@H](NC(=O)[C@@H](CCCNC(=N)N)NC(=O)[C@H](N)CCCNC(=N)N)C(C)C)C(=O)N[C@H](CCCNC(=N)N)C(=O)N[C@H](CCCNC(=N)N)C(=O)O [Peptide G11.24, rrvsrrfmrr] (H-[dR][dR][dV][dS][dR][dR][dF][dM][dR][dR]-OH; N-terminus and C-terminus assumed)	6.07
CSCC[C@H](NC(=O)[C@H](Cc1ccccc1)NC(=O)[C@H](CCCNC(=N)N)NC(=O)[C@H](CCCNC(=N)N)NC(=O)[C@@H](NC(=O)[C@@H](NC(=O)[C@H](CCCNC(=N)N)NC(=O)[C@@H](N)CCCNC(=N)N)C(C)C)C1CCCCC1)C(=O)N[C@@H](CCCNC(=N)N)C(=O)N[C@@H](CCCNC(=N)N)C(=O)O [Peptide G11.18, RRV-Chg-RRFMRR] (H-RRV[Chg]RRFMRR-OH; N-terminus and C-terminus assumed)	5.47
CSCC[C@@H](NC(=O)[C@H](Cc1ccccc1)NC(=O)[C@@H](CCCNC(=N)N)NC(=O)[C@@H](CCCNC(=N)N)NC(=O)[C@H](CO)NC(=O)[C@H](NC(=O)[C@H](CCCNC(=N)N)NC(=O)[C@@H](N)CCCNC(=N)N)C(C)C)C(=O)N[C@@H](CCCNC(=N)N)C(=O)N[C@@H](CCCNC(=N)N)C(=O)O [Peptide G11.35, RRvSrrFmRR] (H-RR[dV]S[dR][dR]F[dM]RR-OH; N-terminus and C-terminus assumed)	6.39

Pending molecule:
The recorded pIC50 for entry CSCC[C@H](NC(=O)[C@H](Cc1ccccc1)NC(=O)[C@@H](CCCNC(=N)N)NC(=O)[C@@H](CCCNC(=N)N)NC(=O)[C@H](CO)NC(=O)[C@H](NC(=O)[C@@H](CCCNC(=N)N)NC(=O)[C@@H](N)CCCNC(=N)N)C(C)C)C(=O)N[C@H](CCCNC(=N)N)C(=O)N[C@@H](CCCNC(=N)N)C(=O)O [Peptide G11.34, RrvSrrFMrR] (H-R[dR][dV]S[dR][dR]FM[dR]R-OH; N-terminus and C-terminus assumed) equals 6.39

----------
// values below are reported log10 IC50
Tested on: Salmonella
Format: cell-based, S. typhimurium
Details: pH 7.2
Source text: The experiments described above characterizing the activity of granulysin peptides G1-G18 relied on counting bacterial colonies on plates. This assay is quite labor intensive and would not allow evaluation of many different compounds on a number of different microbes. Therefore, we optimized an assay in which the entire procedure could be completed in a single microtiter well. […] The OD at 600 nm is read on an ELISA plate reader. […]
Ends that are not written are not given here.
Kindly note that the scale is log10 and the underlying IC50 is in nM.

> print(dat)
                                  substance  recorded.endpoint  test.value
1  GSRRWRDVSRRFMRR [Peptide G14.14, GSRRWRDVSRRFMRR]         log10 IC50        2.32
2  QRSVSRPPTRVSRPPRSRW [Peptide G13.13, QRSVSRPPTRVSRPPRSRW]         log10 IC50        3.15
3    RDVSRRFMRRGSRDVSRRFMRR [Peptide G11.6]         log10 IC50        2.95

The recorded log10 IC50 for entry RRVSRRFMRRD-NH2 [G11.30 CYC, RRVSRRFMRRD] equals 3.89

The recorded log10 IC50 for entry FDTPRRVSRRFMRRLGH [Peptide G11.43, FDTPRRVSRRFMRRLGH] equals 3.48

The measured values listed here are drawn from patent US7745390B2.
